Quick record of GI50 values for mousse fibroblasts (NIH3T3).
property name: GI50

[[record]]
compound = "Cc1ccc(CNc2ncnc3c2ncn3[C@@H]2O[C@H](CO)[C@@H](O)[C@@H]2O)cc1"
reported_result = "> 100 µM"

[[record]]
compound = "Cc1ccccc1CNc1ncnc2c1ncn2[C@@H]1O[C@H](CO)[C@@H](O)[C@@H]1O"
reported_result = "> 100 µM"

[[record]]
compound = "OC[C@H]1O[C@@H](n2cnc3c(NCc4cccc(O)c4)ncnc32)C[C@@H]1O"
reported_result = "> 100 µM"

[[record]]
compound = "OC[C@H]1O[C@@H](n2cnc3c(NCc4cccc(Cl)c4)ncnc32)C[C@@H]1O"
reported_result = "> 100 µM"

[[record]]
compound = "OC[C@H]1O[C@@H](n2cnc3c(NCc4ccccc4F)ncnc32)[C@@H](O)[C@@H]1O"
reported_result = "> 100 µM"

[[record]]
compound = "OC[C@H]1O[C@@H](n2cnc3c(NCc4ccc(Cl)cc4)ncnc32)[C@@H](O)[C@@H]1O"
reported_result = "> 100 µM"

[[record]]
compound = "OC[C@H]1O[C@@H](n2cnc3c(NCc4ccc(O)cc4)ncnc32)[C@@H](O)[C@@H]1O"
reported_result = "87 µM"

[[record]]
compound = "OC[C@H]1O[C@@H](n2cnc3c(NCc4ccccc4)ncnc32)C[C@@H]1O [6-benzylamino-9-β-D-deoxyribosylpurine]"
reported_result = "> 100 µM"

[[record]]
compound = "OC[C@H]1O[C@@H](n2cnc3c(NCc4cccc(F)c4)ncnc32)C[C@@H]1O"
reported_result = "> 100 µM"

[[record]]
compound = "Cc1cccc(CNc2ncnc3c2ncn3[C@@H]2O[C@H](CO)[C@@H](O)[C@@H]2O)c1"
reported_result = "> 100 µM"


====

- Test system: breast cancer (MCF-7)
property name: GI50

[[record]]
structure_smiles = "OC[C@H]1O[C@@H](n2cnc3c(NCc4ccccc4F)ncnc32)[C@@H](O)[C@@H]1O"
reported_result = "87 µM"

[[record]]
structure_smiles = "Cc1cccc(CNc2ncnc3c2ncn3[C@@H]2O[C@H](CO)[C@@H](O)[C@@H]2O)c1"
reported_result = "> 100 µM"

[[record]]
structure_smiles = "OC[C@H]1O[C@@H](n2cnc3c(NCc4cccc(O)c4)ncnc32)C[C@@H]1O"
reported_result = "> 100 µM"

[[record]]
structure_smiles = "OC[C@H]1O[C@@H](n2cnc3c(NCc4cccc(Cl)c4)ncnc32)C[C@@H]1O"
reported_result = "> 100 µM"

[[record]]
structure_smiles = "OC[C@H]1O[C@@H](n2cnc3c(NCc4cccc(F)c4)ncnc32)C[C@@H]1O"
reported_result = "> 100 µM"

[[record]]
structure_smiles = "Cc1ccccc1CNc1ncnc2c1ncn2[C@@H]1O[C@H](CO)[C@@H](O)[C@@H]1O"
reported_result = "> 100 µM"

